Target: GSK3β (Homo sapiens)
Sequence (P49841 whole entry): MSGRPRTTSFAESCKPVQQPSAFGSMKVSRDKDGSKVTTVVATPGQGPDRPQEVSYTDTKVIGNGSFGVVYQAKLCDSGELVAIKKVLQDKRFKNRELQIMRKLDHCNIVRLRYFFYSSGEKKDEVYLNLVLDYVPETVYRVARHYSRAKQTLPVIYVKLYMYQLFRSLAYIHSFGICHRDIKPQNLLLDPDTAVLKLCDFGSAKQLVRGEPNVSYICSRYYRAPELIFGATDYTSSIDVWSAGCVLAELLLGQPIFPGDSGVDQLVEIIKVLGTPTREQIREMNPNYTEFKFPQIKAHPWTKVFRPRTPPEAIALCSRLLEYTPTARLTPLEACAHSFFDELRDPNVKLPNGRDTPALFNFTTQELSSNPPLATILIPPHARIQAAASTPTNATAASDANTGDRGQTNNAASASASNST
VALUE_KIND: pIC50
Please treat pIC50 as minus the base-10 logarithm of the molar concentration.

So for O=C(CN1c2nc(-c3ccncc3)cc(=O)n2CCC1C1CCNCC1)c1ccccc1 (racemic) , the logged pIC50 turned out to be 7.92
